system: MS2 coat protein; test: apparent Kd, MS2 coat protein; higher = weaker binding; RNA-MaP array; FMN 200 µM where present; settings: designed as: OFF switch for flavin mononucleotide; no ligand
Ranges used to classify apparent Kd: low interval: < 0.02 µM; middle interval: ≥ 0.02 µM and < 0.05 µM; high interval: ≥ 0.05 µM

CGGAGGUCAGGAUAUGCAUGGCGGGACUUGCGUCGUGGCGUGCAGAAGGGACAUGAGGAUCACCCAUGUGGAGG    high interval
GGAAAGCAAGGAUAUGCAAACAAACAAACAAACAAAAGGGAACAUGAGGAUCACCCAUGUAGAAGGUGCAAACA    middle interval
CACCGGCCCUAUGUGUUCUAGACAUGAGGAUCACCCAUGUAUAGAAGGGUCUUCGCGAAACGCAGACAGGAUAUGUACAGGAGU    low interval
GCUGCAAAGUAAGGAUAUGCCUAGGAAACCUAGGCAGAAGGUACAUGAGGAUCACCCAUGUUAACGCAAAGCGAAUAAAGCAGC    low interval
CCUUUGUCAGGAUAUCGAAAAGGGAGGCCAAAGGCCUCCGGUGAGAAGGGACAUGAGGAUCACCCAUGUGAAAA    high interval
ACAUGUAAUGUAGGAUAUUUUACACAUGAGGAUCACCCAUGUGACCAGAGGCUUUGCUAUGAGUAAAAGAAGGGUAUGUACAUG    high interval
CUUCGUAUAGAGGAUAUAGGUUACCUCGGUAUCCUAGAAGGCUGUACAUGAGGAUCACCCAUGUACUUCAGAUC    low interval
GGGAAGUAAGGAUAUGCUGCUCGUCACUUGCGUGAUGAGUAGCAGAAGGUACAUGAGGAUCACCCAUGUAAAGA    middle interval
AAACAUGUCCGAGGAUAUCUGGAAACAUUUUCAAGAGAAGGCGGACAUGAGGAUCACCCAUGUCUCUCCUCAUCAAAUCCAAGU    middle interval
UUAUUAUAUGUAGGAUAUGCAUAUUAUUAUUAUGCAGAAGGACAUGAGGAUCACCCAUGUAUAUUAUUGUUAUAUAUUAUAUAU    middle interval
GGCCUGUUAGGAUAUUAGUAGUAGUCAGAAUAGACUAUUACUGAGAAGGGACAUGAGGAUCACCCAUGUUGGCC    low interval
ACACUCUAUGCAGGAUAUCGAGCCUGGGCCUUGUUUUUUGUAAACAUGAGGAUCACCCAUGUCUUCGAGAAGGGCAUAACACCG    high interval
GGAGAGCAAGGAUAUACAUGAGGAUCACCCAUGUACGGUCAUUUGGGCAUGUCUGUAAGUAGAAGGUGUUUUGG    middle interval
GUAGUUAGUAGAGGAUAUUAGUAUGUGUAAUAUUGAGAAGGUUACAUGAGGAUCACCCAUGUGAUCAAUCACUGUUAAGGUUGC    low interval
AUUAUGACCGAGUUAUAGUUCCUAACAUGAGGAUCACCCAUGUAGGAUAUCAGCACGAUAAGUGCUGAGAAGGACAUCUCGGUC    low interval
UAUCCGCUAGGAUAUACUAUAUUGUCCUCGUGAGUGAUGCUACAUGAGGAUCACCCAUGUAGAAGGAGCGCGUG    middle interval
AUGCGUGGCUAGGAUAUUGAGGAAAUUAGUCAGCGAGAAGGAGCCACAUGAGGAUCACCCAUGUGGUGAAGCUC    low interval
AAAGUGUGAGGAUAUCCUGGGCUGGGCCGGGAGGUUCGGUUGGAGAAGGCACAUGAGGAUCACCCAUGUAACGG    high interval
UGUAUGGACAGAGGAUAUGCCGAUAGGAUCUACUAUCGAAGAAUCCUCACAUGAGGAUCACCCAUGUAGAAGGCUGUCCAUACU    middle interval

----------
system: MS2 coat protein; test: apparent Kd, MS2 coat protein; higher = weaker binding; RNA-MaP array; details: ligand present: flavin mononucleotide; designed as: ON switch for flavin mononucleotide
observation-type: apparent Kd (nM)

UUGUUCAGCCUAGGAUAUGGGCAAACAUGAGGAUCACCCAUGUUGAGGCUACCACAAAGCCUGCACCAGAAGGAGGCCUAUACG    5.71
UCUUUCUUUAAAGAACACAUGAGGAUCACCCAUGUUCAAGGGCAGGAUAUGAGUAUCUGUUCGGAUCAGAAGGGCCCAACAGGU    29.5
CGGUGAUUCGUAGGAUAUGUAUGAAGCUAGAGAACAGAAGGACGUCGCUACAAAAUUCAAAAUUACAUGAGGAUCACCCAUGUA    16.4
UAGAGGACGGGAGGAUAUUCAGGUACAUCAGCCGAAGGCACACAUGAGGAUCACCCAUGUGGGUCGAAGAAGGCCCAGUUGACG    4.67
UUGGUUGGGAAAACGAUUUGCACAUGAGGAUCACCCAUGUCGAAGGAUAUGUGGCGCUGUUUGCGACAGAAGGUCGACCUCGCC    14.9
ACGUGGCAACAUGAGGAUCACCCAUGUAAAGAUAAUGAUUACAGAAGGCCCGGAGGAAGGCAAAGGGAGGAUAUGUGUGCCUAC    12.7
GGCGAGACCCAGAAGGUUCGUCCGGAUCCGCGAUAAUACAUGAGGAUCACCCAUGUAAGACCGGGAAAGGAUAUGGGAACAGCG    6.02
ACAGCACAUGAGGAUCACCCAUGUCGACAUGUAUUAGGAUAUGAUCCGCGCUAGACACCAUCAGAAGGAAUACCGA    23.7
ACAUGAGGAUCACCCAUGUAAUAUAUAAAGACUAAAACUAGUUAGGAUAUAUCACAUGUACAGGGAUAGAAGGAACUAGUCUGC    5.84
CCUCCUCAUCGAGGAUAUUGGGUCUGACCUCCAUUUAGACAUGAGGAUCACCCAUGUAAAGUGUCCAAGAAGGCGAUACCGGGA    648
UUCGUCGGACACACACAUGAGGAUCACCCAUGUAUCUCAAUCAGAAGGGUAUCACCGGAUAGGGUACAGGAUAUGACUACUAUA    22.3
UAGCAAUGCGAAGGAUAUGUCGCCCUCCCAAGGACAGAAGGUCGGAACUGUUUACAUGAGGAUCACCCAUGUGGUAAUUAACAA    15.6
CGAAGAAAACGGAAAUCAAUAACAUGAGGAUCACCCAUGUCUCAGGAUAUAAGAGAAGGAUGUAGUUAGAAGGGAGAGUUAUGU    42.4
AAAGAAAACGGAGGAUAUAGAAAUCCGAAUCCAAACCCGCCAACAUGAGGAUCACCCAUGUGCUUCUAGAAGGCCGAAUGCUAC    17
GUGGGCCGGGUAGGAUAUCGACAUGAGGAUCACCCAUGUGUGAGUUGAUGAACUCACGGAUAGCCCGAGAAGGACCUCAGGGCU    16.2
CAUUCCAAGGCGGAGGAUAUUCGGAUCGCCACAUGAGGAUCACCCAUGUACGAGUAGUCUGCAACGAAGAAGGCCGUACGUCACCA    6.57
GGGCGUGGAGUAGGAUAUCCUGUAUACAUGAGGAUCACCCAUGUACAUAUCUAGUAUUACCGUUUGGAGAAGGACUGUUGGGCU    9.71

----------
test system: MS2 coat protein; experiment: apparent Kd, MS2 coat protein; higher = weaker binding; RNA-MaP array; FMN 200 µM where present; settings: ligand present: flavin mononucleotide; designed as: OFF switch for flavin mononucleotide
observation-type: apparent Kd

UGUGUGUUUGUGAGGAUAUGCGCGCGGAAAUGUGUGUAGAAGGCACAUGAGGAUCACCCAUGUAAGGGCGCGCG    439 nM
GAGUGACAUGAGGAUCACCCAUGUGAGGAUAUCGGACGGACCAAAUUAACAAUUUUUGCGAGAAGGCACAUCGG    72.4 nM
ACGGCAGUCGAAGGAUAUGGUUACAUGAGGAUCACCCAUGUCUAGGGUCUAAUUAGGUAUAAUUACCAGAAGGUCGAAGGCCUA    123 nM
GCUAGAGCAGGAUAUCUAGAUCCACACAUGAGGAUCACCCAUGUACAGUCGAAAGACUGAAGAGAAGGGCUCUAGC    92.7 nM

----------
system: MS2 coat protein; experiment: apparent Kd, MS2 coat protein; higher = weaker binding; RNA-MaP array; details: designed as: OFF switch for flavin mononucleotide; no ligand
Use apparent Kd to assign classes; range list: bucket A = under 10 nM, bucket B = from 10 nM up to 30 nM, bucket C = 30 nM and over

AGUUCUGGAGGAUAUACAUCCUCAAUGUCCAACCUGCGGAUACAUGAGGAUCACCCAUGUAGAAGGCCACACAA    bucket A
AUUAAUUCAGGAUAUACAUGAGGAUCACCCAUGUGGCGAAAGAACAUAUAGGAAACAAGUAGAAGGGAAUAGAU    bucket B
UACGUAUUAGGAGGAUAUGGCCCUCAUCUUUGACAUGAGGAUCACCCAUGUGGACAUUACGCCACCCAGAAGGCCUUGCUCGGA    bucket C
CUCUGCUACCGGACUGGUUGGACAUGAGGAUCACCCAUGUACGAGGAUAUACGAAGAAGAACCAGGUAGAAGGCGUUUGGGUAC    bucket B
ACGUUGCAGCAAGGAUAUUCGAGACUACUAGAAGAAGAAGGUGCCGUGCUCUUCACAUGAGGAUCACCCAUGUGGCGUUAAUUU    bucket A
CCGUAUCGACCAGGAUAUUCAAUAGCGCCACAUGAGGAUCACCCAUGUUUAUAUCUUCAUGGAAGGAAGAAGGGGUACAAGCGG    bucket C
GAUUUGUGAGGAUAUCAUUAGAAACAAGUAUGAGGCGAAAGUGAGAAGGCACAUGAGGAUCACCCAUGUUGGAA    bucket B
CGUUAAGGCGAGAAGGUGCCGUCCAACAUGAGGAUCACCCAUGUCGGUCGGUGAAUCAAGAGACGCAAGGAUAUCGACAUUAAC    bucket A
AAAUAAACCGAGGAUAUUAGAUUAGCAUACGAUUAAGAAGGCGGAACAUGAGGAUCACCCAUGUUGGGAGGUCU    bucket C
UGUAUAGCGGCAGGAUAUGAGAGUGUAGGUGCUUCAGAAGGGCCAUGUGACGCUUUAAAUGGGACACAUGAGGAUCACCCAUGU    bucket B
UACUGCAAACAGAAGGUUGGAAGUCGGUUCUCCAAAGGAUAUGUACAUGAGGAUCACCCAUGUGCGCAAAUCGCACAGAGGAGG    bucket B
CAUUCGAAGGUGAGGAUAUAGCUACAGUUAAAUGUCUAGAAGGCACAUGAGGAUCACCCAUGUAGGGUCUCUCA    bucket C
GUAUGGAUAUUCUCACGCUACAUGAGGAUCACCCAUGUUCUAAGAAGGCGGCGAGGUAGAGCAUCCGAGGAUAUUAGAACUCAG    bucket B
UCCAUGUUAGGAUAUCGGCCACCUUCGACAAAAGUGUACUGCGAGAAGGAACAUGAGGAUCACCCAUGUCUGGG    bucket C
